- Assay Remarks: Assay C: Hepatocyte clearance
- Format: in vitro ADME, human
- Experimental Setup: hepatocyte suspension, 1 μM compound, 6 h; predicted clearance as % of hepatic blood flow
Parameter Measured: human Hepatocytes [% Qh]
Quick note: number first, unit second.

Query (compound): CC(C)Cn1c(=O)c(C(N)=O)cn(Cc2nnn(C[C@H](O)c3ccc(Cl)cc3)n2)c1=O ; field requested: human Hepatocytes [% Qh]
49 % Qh

Similarly, Cn1c(=O)c(C(N)=O)cn(Cc2nnn(C[C@H](O)c3cc4ccc(F)cc4o3)n2)c1=O ?
16 % Qh

Ok, now NC(=O)c1cn(Cc2nnn(C[C@H](O)c3ccc(Cl)cc3)n2)c(=O)n(C2CCC2)c1=O
39 % Qh

Please do the same for Cn1c(=O)c(C(=O)NCCN2CCOCC2)cn(Cc2nnn(C[C@H](O)c3ccc(Cl)cc3)n2)c1=O as well.
28 % Qh

----------
- Target: human TRPA1 ion channel (Homo sapiens, UniProt O75762)
- Sequence (O75762 whole entry): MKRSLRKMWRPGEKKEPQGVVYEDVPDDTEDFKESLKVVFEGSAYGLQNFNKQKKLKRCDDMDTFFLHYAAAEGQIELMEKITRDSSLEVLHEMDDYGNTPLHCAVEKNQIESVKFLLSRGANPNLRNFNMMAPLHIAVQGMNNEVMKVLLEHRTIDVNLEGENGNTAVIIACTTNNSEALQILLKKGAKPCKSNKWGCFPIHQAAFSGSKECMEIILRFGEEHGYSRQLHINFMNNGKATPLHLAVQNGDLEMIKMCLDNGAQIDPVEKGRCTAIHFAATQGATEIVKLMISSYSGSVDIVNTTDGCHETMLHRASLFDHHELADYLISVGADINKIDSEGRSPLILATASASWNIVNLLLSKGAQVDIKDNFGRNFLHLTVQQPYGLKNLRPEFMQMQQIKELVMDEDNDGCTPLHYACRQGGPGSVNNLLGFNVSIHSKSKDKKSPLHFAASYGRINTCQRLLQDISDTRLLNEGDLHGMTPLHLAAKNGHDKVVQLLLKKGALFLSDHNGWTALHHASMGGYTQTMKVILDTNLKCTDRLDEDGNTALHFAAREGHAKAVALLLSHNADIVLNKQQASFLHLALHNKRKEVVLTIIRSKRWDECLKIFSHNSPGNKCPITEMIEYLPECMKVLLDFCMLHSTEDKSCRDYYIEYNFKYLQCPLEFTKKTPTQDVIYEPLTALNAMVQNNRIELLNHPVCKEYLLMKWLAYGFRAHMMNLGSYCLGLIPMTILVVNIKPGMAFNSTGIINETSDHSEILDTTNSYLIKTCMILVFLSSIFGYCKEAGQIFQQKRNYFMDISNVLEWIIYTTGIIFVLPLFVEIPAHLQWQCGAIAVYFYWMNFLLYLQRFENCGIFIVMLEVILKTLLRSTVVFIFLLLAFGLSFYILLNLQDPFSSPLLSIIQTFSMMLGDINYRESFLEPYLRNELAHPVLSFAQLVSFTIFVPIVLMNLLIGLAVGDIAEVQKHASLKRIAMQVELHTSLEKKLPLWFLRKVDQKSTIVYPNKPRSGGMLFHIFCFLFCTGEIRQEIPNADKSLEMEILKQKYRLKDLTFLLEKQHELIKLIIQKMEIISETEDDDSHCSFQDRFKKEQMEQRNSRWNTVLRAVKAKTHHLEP
- Assay Remarks: Assay A: TRPA1 assay (FLIPR, AITC-induced calcium, HEK293 cells)
- Experimental Setup: read-out: hTRPA1 IC50
Kindly supply the reported IC50 values for the records listed here.
Return type: number; implicit unit nM.

API: value(readout=IC50, system=human TRPA1 ion channel (Homo sapiens, UniProt O75762)) for record Cn1c(=O)c(C(=O)NCCF)cn(Cc2nnn(C[C@H](O)c3ccc(Cl)cc3)n2)c1=O [Example 33]
116

Repeat for the following molecule: NC(=O)c1cn(Cc2nnn(C[C@H](O)c3ccc(Cl)cc3)n2)c(=O)n(C2CCC2)c1=O [Example 18]
33

Next molecule: Cn1c(=O)c(C(=O)NCCn2cccn2)cn(Cc2nnn(C[C@H](O)c3ccc(Cl)cc3)n2)c1=O [Example 35]
33

And then Cn1c(=O)c(C(N)=O)cn(Cc2nnn(C[C@H](O)c3cc4ccccc4s3)n2)c1=O [Example 2] , what is it?
18

----------
- Assay Remarks: Assay B: Microsomal clearance
- Assay type: in vitro ADME, human
- Experimental Setup: pooled liver microsomes 1 mg/ml, 1 μM compound, NADPH, 37° C.; clearance as % of hepatic blood flow
Parameter Measured: human LM [% Qh]

Looking for the measured human LM [% Qh] of CNC(=O)c1cn(Cc2nnn(C[C@H](O)c3ccc(Cl)cc3)n2)c(=O)n(C)c1=O [Example 27] , can you help?
<23 % Qh

What do we get for Cn1c(=O)c(C(N)=O)cn(Cc2nnn(C[C@H](O)c3cc4cccc(F)c4o3)n2)c1=O [Example 15] ?
<23 % Qh

Param item: CCNC(=O)c1cn(Cc2nnn(C[C@H](O)c3ccc(Cl)cc3)n2)c(=O)n(C)c1=O [Example 34]
43 % Qh

And Cn1c(=O)c(C(=O)NCCn2cccn2)cn(Cc2nnn(C[C@H](O)c3ccc(Cl)cc3)n2)c1=O [Example 35] ?
<23 % Qh
